Each record here notes measured half-life.
experiment: Half life in mouse plasma assessed as remaining peptide antagonistic activity for inhibition of binding of alkaline phosphatase-fused ephrin-A5 to immobilized EphA4 Fc incubated for 3 days by ELISA; type: cell-free

Inquiry: Can you share its half-life? I mean this compound: CC(C)[C@@H]1NC(=O)[C@@H](NC(=O)[C@H](Cc2ccc(O)cc2)NC(=O)[C@@H]2CCCN2C(=O)CCN)CSSC[C@@H](C(N)=O)NC(=O)[C@H](CCC(=O)O)NC(=O)[C@H](Cc2c[nH]c3ccccc23)NC(=O)[C@H](CCC(=O)O)NC(=O)CCNC(=O)[C@H](CCCNC(=N)N)NC(=O)[C@H](Cc2ccc(O)cc2)NC1=O
Reply text: > 72 h
